Data credit: patent US20240158446A1

# System name: GDP-bound KRAS wild-type protein (Homo sapiens)
# Sequence (P01116 whole entry): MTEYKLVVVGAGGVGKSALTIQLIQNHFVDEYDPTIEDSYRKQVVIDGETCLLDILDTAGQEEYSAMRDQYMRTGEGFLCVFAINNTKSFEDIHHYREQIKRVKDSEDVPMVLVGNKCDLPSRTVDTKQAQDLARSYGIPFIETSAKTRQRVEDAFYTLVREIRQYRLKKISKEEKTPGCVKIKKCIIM
# Method description: Binding to KRAS by surface plasmon resonance (SPR), Single Cycle Kinetics
# Assay setup: SPR, Single Cycle Kinetics, 1:1 binding model; GDP-bound KRAS wild-type protein; read-out: KRAS KD
Experimental endpoint: pKd
Scale note: pKd = -log10(concentration in M).

Some entries whose results are on file:
* CCO[C@@H]1C[C@H]2C(=O)NC3(COC3)C(=O)N(C)[C@@H](C3CCCC3)C(=O)N(C)[C@H](C(=O)N(C)C)CC(=O)N(C)[C@@H](CC)C(=O)N[C@@H]([C@@H](C)CC)C(=O)N(C)CC(=O)N(C)[C@H]3C/C=C\CCN(C3=O)[C@@H](Cc3ccc(C(F)(F)F)cc3)C(=O)N(C)CC(=O)N[C@@H](CCc3cc(F)c(C(F)(F)F)c(F)c3)C(=O)N2C1 [PP1278] | 9.85
* CCO[C@@H]1C[C@H]2C(=O)NC3(CCC3)C(=O)N(C)[C@@H](C(CC)CC)C(=O)N(C)[C@H](C(=O)N3CCOCC3)CC(=O)N(C)[C@@H](CC3CC3)C(=O)N[C@@H]([C@@H](C)CC)C(=O)N(C)CC(=O)N(C)[C@H]3C/C=C\CCN(C3=O)[C@@H](Cc3ccc(F)cc3C)C(=O)N(C)CC(=O)N[C@@H](CCc3cc(F)c(C(F)(F)F)c(F)c3)C(=O)N2C1 [PP1526] | 8.89
* CCO[C@@H]1C[C@H]2C(=O)NC3(CCC3)C(=O)N(C)[C@@H](C3CCCC3)C(=O)N(C)[C@H](C(=O)N(C)C)CC(=O)N(C)[C@@H](CC3CC3)C(=O)N[C@@H]([C@@H](C)CC)C(=O)N(C)CC(=O)N(C)[C@H]3C/C=C\CCN(C3=O)[C@@H](Cc3ccc(C)cc3)C(=O)N(C)CC(=O)N[C@@H](CCc3cc(F)c(C(F)(F)F)c(F)c3)C(=O)N2C1 [PP1407] | 10.13
* CCO[C@@H]1C[C@H]2C(=O)NC3(CC(C)(C)C3)C(=O)N(C)[C@@H](C3CCCC3)C(=O)N3CCC[C@@H]3CC(=O)N(C)[C@@H](CC)C(=O)N[C@@H]([C@@H](C)CC)C(=O)N(C)CC(=O)N(C)[C@H]3C/C=C\CCN(C3=O)[C@@H](Cc3ccc(C(F)(F)F)cc3)C(=O)N(C)CC(=O)N[C@@H](CCc3cc(F)c(C(F)(F)F)c(F)c3)C(=O)N2C1 [PP1606] | 9.43
* CCO[C@@H]1C[C@H]2C(=O)NC3(CCC3)C(=O)N(C)[C@@H](C3CCCC3)C(=O)N(C)[C@H](C(=O)N(C)C)CC(=O)N(C)[C@@H](CC(C)C)C(=O)N[C@@H]([C@@H](C)CC)C(=O)N(C)CC(=O)N(C)[C@H]3C/C=C\CCN(C3=O)[C@@H](Cc3ccc(F)cc3C)C(=O)N(C)CC(=O)N[C@@H](CCc3ccc(Cl)c(Cl)c3)C(=O)N2C1 [PP1480] | 9.04

## Task Using GDP-bound KRAS wild-type protein (Homo sapiens) as the test system, report measured pKd of CCO[C@@H]1C[C@H]2C(=O)NC3(CCC3)C(=O)N(C)[C@@H](C3CCCC3)C(=O)N(C)[C@H](C(=O)N3CCCCC3)CC(=O)N(C)[C@@H](CC)C(=O)N[C@@H]([C@@H](C)CC)C(=O)N(C)CC(=O)N(C)[C@H]3C/C=C\CCN(C3=O)[C@@H](Cc3ccc(C(F)(F)F)cc3)C(=O)N(C)CC(=O)N[C@@H](CCc3cc(F)c(C(F)(F)F)c(F)c3)C(=O)N2C1 [PP1289] .
## Result 9.77
